Tested on: Staphylococcus epidermidi 887E
Experiment: MIC against standard strains (agar dilution)
Type: cell-based
Details: Staphylococcus epidermidi 887E; Mueller-Hinton agar, 20 hours at 37°C; read-out: MIC
# key: entry, value: MIC
Metric Name: MIC (µg/mL)

compound="CO/N=C(\\C(=O)NC1C(=O)N2C(C(=O)O)=C(Sc3cc(N)nc(N)n3)CSC12)c1csc(N)n1 (stereo not shown)" metric_name=MIC result_units=µg/mL value_prefix== reading=8
compound="CCO/N=C(\\C(=O)NC1C(=O)N2C(C(=O)O)=C(Sc3cc(N)nc(N)n3)CSC12)c1csc(N)n1 (stereo not shown)" metric_name=MIC result_units=µg/mL value_prefix== reading=8
compound="CC(C)(O/N=C(\\C(=O)N[C@@H]1C(=O)N2C(C(=O)[O-])=C(C[n+]3ccccc3)CS[C@H]12)c1csc(N)n1)C(=O)O [Ceftazidime, reference compound]" metric_name=MIC result_units=µg/mL value_prefix=> reading=128
compound="Nc1cc(SC2=C(C(=O)O)N3C(=O)C(NC(=O)/C(=N\\O)c4csc(N)n4)C3SC2)nc(N)n1 (stereo not shown)" metric_name=MIC result_units=µg/mL value_prefix== reading=2
